Cited source: patent US4401595A

# reported MIC; entries follow
# System: Shigella sonnei MB 11967
OUTCOME MEASURE: MIC (µg/mL)

INSERT INTO results (compound, measurement) VALUES
  ('COC(=O)/C=C/CC1C(=O)N2C(C(=O)OCc3ccccc3)=CCC12 (stereo not drawn) [compound 5]', 20),
  ('COC(=O)/C=C/CC1C(=O)N2C(C(=O)OCC(Cl)(Cl)Cl)=CCC12 (stereo not drawn) [compound 8]', 20),
  ('COC(=O)/C=C/C[C@H]1C(=O)N2C(C(=O)OC3OC(=O)c4ccccc43)=CC[C@@H]12 (relative stereo) [compound 41]', 50);

* * *

Quick note: these are MIC numbers for system: Shigella sonnei MB 11967
OUTCOME MEASURE: MIC

INSERT INTO results (compound, outcome_measure, measurement) VALUES
  ('COC(=O)/C=C/CC1C(=O)N2C(C(=O)OCOC(=O)C(C)(C)C)=CCC12 (stereo not shown) [compound 52]', 'MIC', '20 µg/mL'),
  ('CC(C)(O)[C@H]1C(=O)N2C(C(=O)OCc3ccccc3)=CC[C@@H]12 (relative stereo) [Example 4 cis-isomer]', 'MIC', '≤ 2 µg/mL'),
  ('N#C/C=C/C[C@H]1C(=O)N2C(C(=O)OC3OC(=O)c4ccccc43)=CC[C@@H]12 (relative stereo) [compound 61]', 'MIC', '22 µg/mL'),
  ('N#C/C=C/C[C@H]1C(=O)N2C(C(=O)OCc3ccccc3)=CC[C@@H]12 (relative stereo) [compound 56]', 'MIC', '20 µg/mL');

* * *

# EXPERIMENTAL SYSTEM: β-lactamase, Pseudomonas aeruginosa A (Pseudomonas aeruginosa)
# Sequence (P24735 27-397): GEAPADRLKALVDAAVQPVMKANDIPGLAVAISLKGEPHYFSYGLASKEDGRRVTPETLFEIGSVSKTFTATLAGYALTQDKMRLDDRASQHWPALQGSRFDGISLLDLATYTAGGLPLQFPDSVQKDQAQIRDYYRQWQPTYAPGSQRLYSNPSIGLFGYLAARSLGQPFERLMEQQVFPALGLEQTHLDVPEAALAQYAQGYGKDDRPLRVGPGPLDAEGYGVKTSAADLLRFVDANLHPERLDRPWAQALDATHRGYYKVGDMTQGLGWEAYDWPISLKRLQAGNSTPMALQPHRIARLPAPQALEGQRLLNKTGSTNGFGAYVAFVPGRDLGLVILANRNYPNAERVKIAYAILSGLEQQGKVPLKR
# PROTOCOL TEXT: β-lactamase inhibition I50
pIC50: −log10 of the molar value.
OUTCOME MEASURE: pIC50

INSERT INTO assay_data (molecule, limit_operator, measurement) VALUES
  ('O=CCC1C(=O)N2C(C(=O)OCc3ccccc3)=CCC12 (centres unmarked) [compound 4]', '<', 3.85),
  ('O=C(OCc1ccccc1)C1=CC[C@H]2[C@@H](C3(O)CCCCC3)C(=O)N12 (relative stereo) [compound 34]', '=', 5.39);

* * *

# EXPERIMENTAL SYSTEM: β-lactamase, Staphylococcus aureus Russell (Staphylococcus aureus, UniProt P00807)
# Sequence (P00807 25-281): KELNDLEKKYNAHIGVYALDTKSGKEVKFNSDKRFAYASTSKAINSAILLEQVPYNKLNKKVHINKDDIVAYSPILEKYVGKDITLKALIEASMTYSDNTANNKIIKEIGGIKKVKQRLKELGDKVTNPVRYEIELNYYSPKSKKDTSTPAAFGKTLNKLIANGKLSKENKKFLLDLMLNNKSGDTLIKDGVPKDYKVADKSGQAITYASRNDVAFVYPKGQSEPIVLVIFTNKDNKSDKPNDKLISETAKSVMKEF
# PROTOCOL TEXT: β-lactamase inhibition I50
# Type: biochemical
# reported IC50; entries follow
OUTCOME MEASURE: IC50 (µM)

INSERT INTO measurements (compound, experimental_system, units_text, limit_operator, measurement) VALUES
  ('O=C(OCc1ccccc1)C1=CC[C@@H]2[C@H](C(O)c3ccccc3)C(=O)N12 (stereo partly drawn)', 'β-lactamase, Staphylococcus aureus Russell (Staphylococcus aureus, UniProt P00807)', 'µM', '=', 0.149),
  ('O=CCC1C(=O)N2C(C(=O)OCc3ccccc3)=CCC12 (stereo not drawn)', 'β-lactamase, Staphylococcus aureus Russell (Staphylococcus aureus, UniProt P00807)', 'µM', '>', 35.1),
  ('O=C(OCc1ccccc1)C1=CC[C@H]2[C@@H](C3(O)CCCCC3)C(=O)N12 (relative stereo)', 'β-lactamase, Staphylococcus aureus Russell (Staphylococcus aureus, UniProt P00807)', 'µM', '=', 13.5);

* * *

# System: Staph. aureus Russell
OUTCOME MEASURE: MIC

INSERT INTO assay_data (compound, measurement) VALUES
  ('N#C/C=C/C[C@H]1C(=O)N2C(C(=O)OCc3ccccc3)=CC[C@@H]12 (relative stereo)', '≤ 2 µg/mL'),
  ('O=C(OC1OC(=O)c2ccccc21)C1=CCC2CC(=O)N12 (stereo not drawn)', '20 µg/mL'),
  ('COC(=O)/C=C/C[C@H]1C(=O)N2C(C(=O)OC3OC(=O)c4ccccc43)=CC[C@@H]12 (relative stereo)', '≤ 0.8 µg/mL'),
  ('COC(=O)/C=C/CC1C(=O)N2C(C(=O)OCC(Cl)(Cl)Cl)=CCC12 (stereo not drawn)', '≤ 2 µg/mL'),
  ('CC(C)(O)[C@H]1C(=O)N2C(C(=O)OCc3ccccc3)=CC[C@@H]12 (relative stereo) [Example 4 cis-isomer]', '≤ 2 µg/mL'),
  ('COC(=O)/C=C/CC1C(=O)N2C(C(=O)OCc3ccccc3)=CCC12 (stereo not drawn)', '2 µg/mL'),
  ('COC(=O)/C=C/CC1C(=O)N2C(C(=O)OCOC(=O)C(C)(C)C)=CCC12 (stereo not drawn)', '2 µg/mL'),
  ('COC(=O)/C=C/CC1C(=O)N2C(C(=O)OCc3ccc([N+](=O)[O-])cc3)=CCC12 (stereo not drawn) [53a]', '2.46 µg/mL'),
  ('N#C/C=C/C[C@H]1C(=O)N2C(C(=O)OC3OC(=O)c4ccccc43)=CC[C@@H]12 (relative stereo)', '2.4 µg/mL');
